Target: T1, recombinant human LAG-3-his protein (Novoprotein) (human, UniProt P18627 23-450)
T1 construct: Bought; also called huLAG-3; not shown: His tag
T1 sequence (looked up): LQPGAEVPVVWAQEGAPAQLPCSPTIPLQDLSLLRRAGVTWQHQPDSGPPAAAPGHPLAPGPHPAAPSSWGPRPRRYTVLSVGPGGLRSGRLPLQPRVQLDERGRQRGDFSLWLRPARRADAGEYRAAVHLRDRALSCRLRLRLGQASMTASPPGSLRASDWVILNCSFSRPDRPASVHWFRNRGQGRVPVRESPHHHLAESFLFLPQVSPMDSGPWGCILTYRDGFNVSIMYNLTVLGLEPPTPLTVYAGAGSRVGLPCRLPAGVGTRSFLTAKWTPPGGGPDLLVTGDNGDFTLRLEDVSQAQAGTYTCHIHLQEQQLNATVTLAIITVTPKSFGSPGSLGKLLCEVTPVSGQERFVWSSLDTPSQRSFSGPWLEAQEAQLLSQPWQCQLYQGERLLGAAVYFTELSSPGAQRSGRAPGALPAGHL
Experiment: BLI Octet, Ab on AHC sensor, huLAG-3-his; test group 2
parameter-measured: koff
Answer with the number, then the unit.

Challenge: Return koff (reported value) for this binder: HumAb747-39 (antibody, human IgG1, V domains shown, humanized mAb747; human IgG1 and human kappa constant domains) VH: EVQLVQSGAEVKKPGASVKVSCKASDFNIKDDYMHWVRQAPGQGLEWIGWIVPENGNTEYASKFQGRVTITADTSINTAYMELSRLRSDDTAVYYCTVYGDYWGQGTTVTVSS VL: DIQMTQSPSSLSASVGDRVTINCRASQEISGYLSWLQQKPEGTIKRLIYAASTLDSGVPSRFSGSRSGSDYTLTISSLQPEDFATYYCLQYASYPLTFGGGTKVEIK
Response given: 0.00391 s⁻¹
